study target: human GIP receptor (hGIP R) (Homo sapiens, UniProt P48546)
Construct: expressed in transfected cells; host or cells: HEK-293
Sequence (P48546 22-466): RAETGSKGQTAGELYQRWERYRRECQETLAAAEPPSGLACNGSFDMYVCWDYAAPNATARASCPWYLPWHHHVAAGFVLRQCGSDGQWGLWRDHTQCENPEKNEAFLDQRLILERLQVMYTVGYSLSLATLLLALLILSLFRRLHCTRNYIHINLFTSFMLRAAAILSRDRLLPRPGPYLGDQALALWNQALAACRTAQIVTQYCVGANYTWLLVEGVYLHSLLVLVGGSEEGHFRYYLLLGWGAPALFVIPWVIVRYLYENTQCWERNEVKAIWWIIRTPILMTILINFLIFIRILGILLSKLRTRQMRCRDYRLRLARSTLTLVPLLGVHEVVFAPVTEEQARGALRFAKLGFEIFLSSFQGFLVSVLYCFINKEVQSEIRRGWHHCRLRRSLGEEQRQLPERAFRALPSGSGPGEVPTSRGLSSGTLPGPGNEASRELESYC
method description: cAMP response of HEK-293 cells stably expressing human GIP receptor (HTRF)
Assay type: cell-based
test settings: Table 2; cAMP formation; read-out: EC50 hGIP R
property measured: EC50 (nM)
Write the answer as a number in nM, unit excluded.

Task item: Please state recorded EC50 (tested on human GIP receptor (hGIP R) (Homo sapiens, UniProt P48546)) of H-YAEGTFTSDVSIYLEGQAAKEFIAWLVKGR-NH2 [SEQ ID NO: 7, reference compound]
Reply: 3.66
